- System: methicillin-resistant Staphylococcus aureus (MRSA)
- assay procedure: Determination of MIC values (BHI broth, 96 well microtiter plate)
- Format: cell-based
- settings: Staphylococcus aureus, MRSA; BHI broth, overnight 37° C.; read-out: MIC MRSA
property measured: MIC

# example entries with known answers
Query: State its MIC: O=C(O)c1cc(-c2c[nH]c3ccc(Br)cc23)nc2cc(F)cc(Cl)c12
Reply: < 25 µg/mL

Query: Given Cn1cc(-c2ccc3cc(Cl)ccc3n2)c2cc(F)ccc21 , respond with its MIC.
Reply: < 7 µg/mL

Query: Given the compound NCC1CCC(CNC(=O)c2cc(-c3c[nH]c4ccc(Br)cc34)nc3cc(Cl)c(I)cc23)CC1 (centres unmarked) , write its reported MIC.
Reply: < 7 µg/mL

Query: Specify MIC for Cn1cc(-c2cc(C(=O)NCc3cccc(CN)c3)c3cc(Cl)ccc3n2)c2cc(Br)ccc21 and stop.
Reply: > 25 µg/mL

Query: Tell me MIC reported for NCCNC(=O)c1cc(-c2c[nH]c3ccc(Br)cc23)nc2cc(Cl)ccc12
Reply: < 7 µg/mL

---
Query: Check the records and state MIC for NCc1cccc(CNC(=O)c2cc(-c3c[nH]c4ccc(Br)cc34)nc3cc(Cl)cc(Cl)c23)c1
Reply: < 7 µg/mL

Query: Given Cn1cc(-c2cc(C(=O)NCCN)c3cc(Cl)ccc3n2)c2cc(Br)ccc21 , respond with its MIC.
Reply: < 7 µg/mL

Query: Identify measured MIC corresponding to NCc1ccc(CNC(=O)c2cc(-c3c[nH]c4ccc(Cl)cc34)nc3ccc(Br)cc23)cc1
Reply: < 7 µg/mL

---

- Test system: Streptococcus pneumoniae
- assay procedure: Determination of MIC values (BHI broth, 96 well microtiter plate)
- Format: cell-based
- settings: Streptococcus pneumoniae; S. pneu; BHI broth, overnight 37° C.; read-out: MIC S. pneu
Listed here: items and their measured MIC.

Example cases with answers are listed next.
Query: Give MIC for the following molecule: Clc1ccc2nc(-c3c[nH]c4c(Br)cccc34)ccc2c1
Reply: > 25 µg/mL

Query: Given NCc1cc(-c2c[nH]c3ccc(Cl)cc23)nc2ccccc12 , respond with its MIC.
Reply: < 7 µg/mL

Query: Identify measured MIC corresponding to Cn1cc(-c2cc(C(=O)NCc3ccc(CN)cc3)c3cc(I)ccc3n2)c2cc(Br)ccc21
Reply: < 7 µg/mL

Query: Fill in MIC for record CCOc1cc(-c2c[nH]c3ccc(Br)cc23)nc2ccc(I)cc12
Reply: < 7 µg/mL

Query: Report MIC for Cn1cc(-c2ccc3cc(Cl)ccc3n2)c2cc(O)ccc21
Reply: < 7 µg/mL

Further cases:
Query: Check the records and state MIC for NCc1ccc(CNC(=O)c2cc(-c3c[nH]c4ccc(Br)cc34)nc3cc(Cl)c(C#CCN4CC=CCC4)cc23)cc1
Reply: < 7 µg/mL

Query: Supply measured MIC of NCCNC(=O)c1cc(-c2c[nH]c3ccc(Cl)cc23)nc2c(Br)cccc12 in your reply.
Reply: < 7 µg/mL

Query: Read off the recorded MIC for NCc1cccc(CNC(=O)c2cc(-c3c[nH]c4ccc(Br)cc34)nc3cc(I)ccc23)c1
Reply: < 7 µg/mL

Query: Tell me measured MIC for CN(CC#Cc1ccc2nc(-c3cn(C)c4ccc(Br)cc34)cc(C(=O)NCc3ccc(CN)cc3)c2c1)C1CCCCC1 please.
Reply: < 7 µg/mL

Query: Entry NCCNC(=O)c1cc(-c2c[nH]c3ccc(Br)cc23)nc2c(F)cccc12 needs its MIC filled in; supply it.
Reply: < 7 µg/mL
